System: A. baumannii
ASSAY_INFO: MIC, CLSI microtiter dilution, A. baumannii
Type: cell-based, Acinetobacter baumannii
ASSAY_SETUP: Acinetobacter baumannii; A. baumannii; 37° C., 24 hours; Cation adjusted Mueller-Hinton Broth; read-out: MIC
REPORTED_PROPERTY: MIC

> print(dat)
                                   compound  reported.property  recorded.value
1  Cn1cc(C(=O)NNc2ccc(F)cc2)ccc1=O [Ex. 19]                MIC      0.25 µg/mL
2  O=C(NNc1ccc(F)cc1)c1cccc(=O)n1Cc1ccccc1 [Ex. 5]                MIC      0.25 µg/mL

Give measured MIC for every item shown.
1. O=C(NNc1ccc(F)cc1)c1cccc(=O)n1C(F)F [Ex. 4]
2. Cn1ccc(C(=O)NNc2ccc(F)cc2)cc1=O [Ex. 18]
3. COc1cc(C(=O)NNc2ccc(F)cc2)n(C)c(=O)c1 [Ex. 21]
4. CCn1cccc(C(=O)NNc2ccc(F)cc2)c1=O [Ex. 16]
5. Cn1c(C(=O)NNc2ccc(F)cc2)cccc1=O [Ex. 1]

RESULT:
1 µg/mL
0.25 µg/mL
0.25 µg/mL
0.5 µg/mL
0.5 µg/mL
